Hey, just so you know, these numbers are from ChEMBL document CHEMBL1201862.

Tested on: RPMI-8226
Test summary: NCI tumour cell line growth inhibition, 48 h
The source made the active and inactive calls. No stated cut-off is given here; in the data, active = GI50 up to about 1.1 µM and inactive = higher.
// classify into 1 (yes) for active, 0 (no) for inactive

Worked examples, 5 molecules total:
Short answer needed: outcome of this test for CN1CC[C@]2(c3cccc(O)c3)CC(=O)/C(=C/c3ccc(Cl)c(Cl)c3)[C@@H]1C2 ?
1 (yes)

Again, but for CC1(O)OC(=O)C2=C1CCC1C2CCC2(C)C(O)CCC12 (centres undefined)
0 (no)

// next record COc1ccc(C2C(C#N)=C(S)N(C3OC(CO)C(O)C(O)C3O)C(c3ccccc3)=C2C(C)=O)cc1 (centres undefined)
0 (no)

Thanks! And Cc1ccc([N+](=O)[O-])cc1S(=O)(=O)Nc1ccc(C2=NN(S(=O)(=O)c3cc([N+](=O)[O-])ccc3C)C(c3cccs3)C2)cc1 (centres undefined) ?
0 (no)

Further, for COC(=O)CC(CC(=O)C(=O)OC)C(=O)OC (centres undefined) ?
0 (no)

---
Please indicate how the test categorized c1ccc(-c2sc(-c3ccccc3)c3c2C(c2ccccc2)c2c(-c4ccccc4)sc(-c4ccccc4)c2C3c2ccccc2)cc1 (centres undefined) .
0 (no)

Same for CC(C)(C)N1NC1C1NN1C(C)(C)C (centres undefined)
0 (no)

Same again, this time with O=c1nc(NC(c2ccccc2)(c2ccccc2)c2ccccc2)ccn1CCO
0 (no)

// same read-out, input: CN(C)CCNC(=O)c1cccc2[nH]c(-c3ccccc3)nc12
0 (no)
